target: human PDHK2 (hPDHK2) (Homo sapiens (Human)); test: Inhibitory action of PDHK activity in vitro (kinase reaction, residual PDH activity measured); type: biochemical; conditions: PDHK inhibitory activity, class symbol of IC50
The molecules listed here are annotated with their IC50.

MOLECULE	TESTED ON	RESULT
O=C(O)Cn1cc(-c2cccc3c2-c2ccccc2C3(O)C(F)(F)F)cn1 (centres unmarked)	human PDHK2 (hPDHK2) (Homo sapiens (Human))	100 to 1000 nM
Cn1cc(-c2ccc3c(c2)C(O)(C(F)(F)F)c2ccccc2-3)cn1 (centres unmarked)	human PDHK2 (hPDHK2) (Homo sapiens (Human))	100 to 1000 nM
N#Cc1cc(C(=O)N2CCC2)cc2c1-c1ccccc1C2(O)C(F)(F)F (centres unmarked)	human PDHK2 (hPDHK2) (Homo sapiens (Human))	< 100 nM
COC(=O)c1ccc(F)c2c1-c1ccccc1C2(O)C(F)(F)F (centres unmarked)	human PDHK2 (hPDHK2) (Homo sapiens (Human))	> 1000 nM

Field: next molecule
stdin: Can you look up the measured IC50 of CC(C)C(=O)c1cccc2c1-c1ccccc1C2(O)C(F)(F)F (centres unmarked) for me?
stdout: > 1000 nM

---

Catalogue of compounds with associated pIC50
target: human PDHK2 (hPDHK2) (Homo sapiens (Human)); experiment: Inhibitory action of PDHK activity in vitro (kinase reaction, residual PDH activity measured); type: biochemical; details: read-out: PDHK inhibitory activity IC50
Scale: pIC50 equals -log10([C]), with [C] in mol/L.

COMPOUND	MEASURED METRIC	RECORDED NUMBER
COCOCCN1C(=O)CCC1COc1ccc2c(c1)C(O)(C(F)(F)F)c1ccccc1-2 (centres unmarked)	pIC50	6.60

stdin: Item under review: CN(C)C(=O)CCn1cc(-c2cccc3c2-c2ccccc2C3(O)C(F)(F)F)cn1 (centres unmarked) . Reported pIC50?
stdout: 7.28

stdin: Same again, this time with CNC(=O)Cn1cc(-c2cc(F)cc3c2-c2ccccc2C3(O)C(F)(F)F)cn1 (centres unmarked)
stdout: 7.42

stdin: Can you check CN1C(=O)CC[C@@H]1COc1ccc2c(c1)C(O)(C(F)(F)F)c1ccccc1-2 (some centres unmarked) next?
stdout: 6.69

stdin: What do you get for CC(=O)N(C)CCn1cc(-c2cccc3c2-c2ccccc2C3(O)C(F)(F)F)cn1 (centres unmarked) ?
stdout: 6.71

stdin: Same question, Cn1cc(-c2cc(C(=O)N3CCC(CO)C3)cc3c2-c2ccccc2C3(O)C(F)(F)F)cn1 (centres unmarked) this time
stdout: 7.24

stdin: // query: OC1(C(F)(F)F)c2ccccc2-c2ccc(-c3cccs3)cc21 (centres unmarked)
stdout: 5.95

stdin: O=C(c1ccc2c(c1)C(O)(C(F)(F)F)c1ccccc1-2)N1CC(OCCO)C1 (centres unmarked) ?
stdout: 6.34

stdin: Could you do the same for CNCCOc1ccc2c(c1)C(O)(C(F)(F)F)c1ccccc1-2 (centres unmarked) , please?
stdout: 5.27

stdin: What do we get for CN(C)CCCOc1ccc2c(c1)C(O)(C(F)(F)F)c1ccccc1-2 (centres unmarked) ?
stdout: 6.03

stdin: Same read-out for Cn1cc(-c2cc(C(=O)N3CCC[C@H]3CO)cc3c2-c2ccccc2C3(O)C(F)(F)F)cn1 (some centres unmarked) ?
stdout: 6.75

stdin: Same read-out for CC(=O)c1cccc2c1-c1ccccc1C2(O)C(F)(F)F (centres unmarked) ?
stdout: 6.20

stdin: Moving on to the next compound: OC1(C(F)(F)F)c2ccccc2-c2ccc(Br)cc21 (centres unmarked)
stdout: 5.84

stdin: Another compound: CN(C)C(=O)c1ccc2c(c1)C(O)(C(F)(F)F)c1ccccc1-2 (centres unmarked)
stdout: 5.87

stdin: Cool, now CC(C)(C)C(=O)N1CCN(c2ccc3c(c2)C(O)(C(F)(F)F)c2ccccc2-3)CC1 (centres unmarked)
stdout: 6.55

stdin: Param item: Cc1cc(-c2cnn(CC(C)(C)C(=O)O)c2)c2c(c1)C(O)(C(F)(F)F)c1ccccc1-2 (single isomer, unassigned)
stdout: 7.44

---

// values below are reported IC50
biological target: human PDHK2 (hPDHK2) (Homo sapiens (Human)); assay: Inhibitory action of PDHK activity in vitro (kinase reaction, residual PDH activity measured); format: biochemical; conditions: PDHK inhibitory activity, class symbol of IC50

MOLECULE	TESTED ON	RESULT
Cn1cc(-c2cc(OCCO)cc3c2-c2ccccc2C3(O)C(F)(F)F)cn1 (stereo not shown)	human PDHK2 (hPDHK2) (Homo sapiens (Human))	< 100 nM
O=C(c1cc(-c2cnn(CCO)c2)c2c(c1)C(O)(C(F)(F)F)c1ccccc1-2)N1CCCC1 (stereo not shown)	human PDHK2 (hPDHK2) (Homo sapiens (Human))	< 100 nM
O=C(c1ccc2c(c1)C(O)(C(F)(F)F)c1ccccc1-2)N1CC(C(=O)N2CCC(O)CC2)C1 (stereo not shown)	human PDHK2 (hPDHK2) (Homo sapiens (Human))	100 to 1000 nM

stdin: Using the record for NC(=O)c1ccccc1-c1ccc2c(c1)C(O)(C(F)(F)F)c1ccccc1-2 (stereo not shown) , report its IC50.
stdout: > 1000 nM

---

target: UniProtKB Q15119; experiment: Inhibitory action of PDHK activity in vitro (kinase reaction, residual PDH activity measured); format: biochemical; details: read-out: PDHK inhibitory activity IC50
MEASURED METRIC: pIC50
To interpret pIC50, take it as minus log10 of a concentration measured in moles per litre.

MOLECULE	pIC50
CC(=O)c1cc(-c2cnn(CCC(=O)O)c2)cc2c1-c1ccccc1C2(O)C(F)(F)F (stereo not drawn) [compound 594]	7.32
CN(C)C(=O)C1CN(C(=O)c2cc(Cl)c3c(c2)C(O)(C(F)(F)F)c2ccccc2-3)C1 (stereo not drawn) [compound 329]	7.18

stdin: Requested field: pIC50. Item: OCCn1cc(-c2cc(Cl)cc3c2-c2ccccc2C3(O)C(F)(F)F)cn1 (stereo not drawn) [compound 460]
stdout: 7.52

stdin: Next molecule up: O=C(O)CCCOc1cc(Br)c2c(c1)C(O)(C(F)(F)F)c1ccccc1-2 (stereo not drawn) [compound 404]
stdout: 6.71

stdin: Follow-up entry: Cn1cc(-c2cc(Cl)cc3c2-c2ccccc2C3(O)C(F)(F)F)cn1 (stereo not drawn) [compound 286]
stdout: 7.77

stdin: Next molecule up: CC(C)n1cc(-c2cc(C(N)=O)c3c(c2)C(O)(C(F)(F)F)c2ccccc2-3)cn1 (stereo not drawn) [compound 528]
stdout: 7.31

stdin: What do you get for Nc1ccc2c(c1)C(O)(C(F)(F)F)c1ccccc1-2 (stereo not drawn) [compound 55] ?
stdout: 4.70

stdin: Please answer likewise for CC(C)C(=O)N1CCN(c2ccc3c(c2)C(O)(C(F)(F)F)c2ccccc2-3)CC1 (stereo not drawn) [compound 208]
stdout: 6.17

stdin: Next entry: CC(=O)c1cc(-c2cnn(CCO)c2)cc2c1-c1ccccc1C2(O)C(F)(F)F (stereo not drawn) [compound 585]
stdout: 7.59

stdin: And what about the molecule O=C1NCCN1CCOc1ccc2c(c1)C(O)(C(F)(F)F)c1ccccc1-2 (stereo not drawn) [compound 469] ?
stdout: 6.71

stdin: Can you handle OC1(C(F)(F)F)c2ccccc2-c2ccc(N3CCNCC3)cc21 (stereo not drawn) [compound 164] next?
stdout: 5.56

stdin: Note, next up: O=C(O)c1cccc(-c2ccc3c(c2)C(O)(C(F)(F)F)c2ccccc2-3)c1 (stereo not drawn) [compound 155]
stdout: 6.09

stdin: How about OCCn1cc(-c2cnc3c(c2)C(O)(C(F)(F)F)c2ccccc2-3)cn1 (stereo not drawn) [compound 563] ?
stdout: 7.20

stdin: And for O=C(NCCCCO)c1ccc2c(c1)C(O)(C(F)(F)F)c1ccccc1-2 (stereo not drawn) [compound 312] ?
stdout: 5.74

---

Entries and their pIC50
target: UniProt:Q15119; test: Inhibitory action of PDHK activity in vitro (kinase reaction, residual PDH activity measured); format: biochemical; conditions: PDHK inhibitory activity, class symbol of IC50
pIC50: −log10 of the molar value.

Record excerpt, results attached:
MOLECULE	pIC50
OC1(C(F)(F)F)c2ccccc2-c2c(Cl)cc(-c3ccncc3)cc21 (centres unmarked)	> 7.00
CN(C)C(=O)COc1cc(-c2cnn(C)c2)c2c(c1)C(O)(C(F)(F)F)c1ccccc1-2 (centres unmarked)	> 7.00
O=C(c1ccc2c(c1)C(O)(C(F)(F)F)c1ccccc1-2)N1CCC1 (centres unmarked)	6.00 to 7.00
Cn1cc(-c2cc(OCC(=O)N3CC(CO)C3)cc3c2-c2ccccc2C3(O)C(F)(F)F)cn1 (centres unmarked) [compound 439]	> 7.00
O=C(O)CCn1cc(-c2cnc3c(c2)C(O)(C(F)(F)F)c2ccccc2-3)cn1 (centres unmarked)	> 7.00

stdin: For the molecule O=C(O)CCCCOc1ccc2c(c1)C(O)(C(F)(F)F)c1ccccc1-2 (centres unmarked) , what pIC50 is on record?
stdout: 6.00 to 7.00

stdin: What about CN(C)C1CN(C(=O)c2ccc3c(c2)C(O)(C(F)(F)F)c2ccccc2-3)C1 (centres unmarked) ?
stdout: < 6.00

stdin: Follow-up item: Cc1ccc(-c2cccc3c2-c2ccccc2C3(O)C(F)(F)F)cn1 (centres unmarked)
stdout: 6.00 to 7.00
